- PROCEDURE TEXT: yeast display, Sf9 membrane polyspecificity reagent, FACS + sequencing; frameworks hold sequencing errors
MEASURED ATTRIBUTE: polyreactivity (PSR sort gate)

# example entries with known answers
QVQLVESGGGLVQAGGSLRLSCAASGSNFRDNGMGWYRQAPGKERELVAAINSGDSTYYADSVKGRFTISRDNAKNTVYLQMNSLKPEDTAVYYCNADDRRALSQRQYDWYDYWGQGTQVTVSS    low polyreactivity
QVQLVESGVGLVQAGGSLRLSCAASGSIFRYYAMGWYRQAPGKEREFVADITWSGTSTYYADSVKGRFTISRDNAKNTVYFQMNSLKPEDTAVFYCNKYRSYWSGPSYWREYDYWGQGTQVTVSS    high polyreactivity
QVQLVESGGGLVQAGGSLRLSCAASGSILRQYAMGWYRQAPGKERELVATISRSGGSKYYADSVKGRFTISRDNAKNTVYLQMNSLKPEDTAVYYCAASRYNKSYREWWVGSWGQGTQVTVSS    high polyreactivity
QVQLVESGGGLVQAGGSLRLSCAASGLIFVYNSMGWYRQAPGKERELVAGITSGGSTNYADSVKGRFTISRDNAKNTVYLQMNSLKPEDTAVYYCAAGYYDLYLWWGYDYWGQGTQVTVSS    high polyreactivity

Proceeding to the next sequence to report its polyreactivity (PSR sort gate).
Query string: Query (sequence): QVQLVESGGGLVQAGGSLRLSCAASGSIFFLYAMGWYRQAPGKERELVASISRGDSTNYADSVKGRFTISRDNAKNTVYLQMNSLKPEDTAVYYCAAYRLYWPSTARRYDYWGQGTQVTVSS ; field requested: polyreactivity (PSR sort gate)
Result string: low polyreactivity
